Please provide measured ABCB11 mRNA FC (5 μM ASO vs. UNT) for the entries that follow.
Tested on: human ABCB11 mRNA
Assay: ASO treatment of primary human hepatocytes (PHH), ABCB11 mRNA by RT-qPCR normalized to B2M
Type: cell-based
Details: primary human hepatocytes, 5 μM ASO, normalized to untreated PHHs (UNT)
Strand notation (5' to 3'): a small letter for the sugar, then the base; units joined by * are phosphorothioate-linked, units joined directly phosphodiester-linked; [ ] holds rarer units or linkages, { } end groups; capitals alone tell only the bases. e = 2'-O-(2-methoxyethyl) (MOE); l = locked nucleic acid (LNA); [5mC] = 5-methylcytosine; d = 2'-deoxy (DNA)
Report as: number unit

Prompt: Tell me the measured ABCB11 mRNA FC (5 μM ASO vs. UNT) of CO-7000 (antisense eG*eT*lG*eA*eG*lG*e[5mC]*eA*lT*e[5mC]*eA*lG*eG*eT*lA*eA*eG*lT*eT*e[5mC]) , please.
Completion: 1.203 fold change

Prompt: Cool, now CO-7154 (antisense eA*e[5mC]*e[5mC]*eT*eT*dA*dG*eG*dA*dG*eG*dA*dT*eT*dA*dT*eT*dT*dA*eA*e[5mC]*e[5mC]*eT*e[5mC])
Completion: 1.274 fold change

Prompt: Cool, now CO-7005 (antisense eG*eT*eG*eG*eA*eT*dG*dT*dA*dG*dA*dT*dG*dA*dA*dT*eG*eG*e[5mC]*eA*eA*eG)
Completion: 1.257 fold change

Prompt: Cool, now CO-6976 (antisense eT*e[5mC]*e[5mC]*eT*eG*eA*eA*eG*eT*eG*eG*eA*eG*eG*eT*eG*eG*eT*eG*eG)
Completion: 1.373 fold change

Prompt: Cool, now CO-7107 (eA*e[5mC]*eA*eT*eT*eT*eA*eG*eA*eG*eA*e[5mC]*eA*eA*eA*eG*eA*eA*eT*e[5mC]*eG*e[5mC]; antisense)
Completion: 1.148 fold change

Prompt: Cool, now CO-4484 (antisense eG*e[5mC]*eT*eA*eA*eT*e[5mC]*e[5mC]*eA*eA*e[5mC]*e[5mC]*eA*e[5mC]*eT*eT*e[5mC]*eA*eA*e[5mC])
Completion: 1.113 fold change

Prompt: Cool, now CO-7003 (antisense eG*eT*eG*eA*eG*lG*e[5mC]*eA*eT*e[5mC]*lA*eG*eG*eT*eA*lA*eG*eT*eT*e[5mC])
Completion: 1.066 fold change

Prompt: Cool, now CO-4024 (antisense eA*e[5mC]*eT*eT*eA*e[5mC]*eA*eG*eG*eA*eT*eG*e[5mC]*eA*eT*eT*eA*eA*eT*eG)
Completion: 0.997 fold change

Prompt: Cool, now CO-4014 (antisense eG*eA*eT*e[5mC]*eA*e[5mC]*eA*eA*eA*eT*eT*e[5mC]*eT*eA*e[5mC]*e[5mC]*e[5mC]*eT*eT*eG)
Completion: 1.003 fold change

Prompt: Cool, now CO-4490 (antisense e[5mC]*eG*eA*eG*eA*eA*eA*eA*eT*eG*eA*eG*eG*eT*eA*e[5mC]*eA*eT*eG*eG)
Completion: 1.158 fold change

Prompt: Cool, now CO-7189: derivative ASO with additional chemical modifications based on parent ASO CO-4535 (antisense eT*eG*lG*e[5mC]*lG*eT*lT*eA*lT*eT*lA*eA*lT*eT*l[5mC]*eT*lA*e[5mC]*eA*eG)
Completion: 1.487 fold change

Prompt: Cool, now CO-7013 (antisense eA*eG*eT*eG*eA*eG*dG*d[5mC]*dA*dT*d[5mC]*dA*dG*dG*dT*dA*eA*eG*eT*eT*e[5mC]*e[5mC])
Completion: 0.997 fold change
